tested on: A549 NSCLC; test: NCI tumour cell line growth inhibition, 48 h
TGI values for the compounds below.
endpoint-name: TGI

* CCOC(=O)/C=C/C1=C(c2ccsc2)c2ccc(OC)cc2CC1 | > 100 µM
* COc1ccc([C@@H]2C[C@@H]3C(=O)OC(=O)[C@@H]3c3c2c2ccccc2n3C)cc1 | > 100 µM
* CCCC(=O)N(C(=O)CCC)C1=C(Cl)C(=O)c2ccccc2C1=O | > 52.8 µM
* N#Cc1c(-c2ccc([N+](=O)[O-])cc2)cc(-c2ccc(Nc3ccnc4cc(C(F)(F)F)ccc34)cc2)[nH]c1=O | > 100 µM
* CC1=C(C(=O)OCc2ccncc2)C(C2=C(C)SCCS2)C(C(=O)OCc2ccncc2)=C(C)N1 | > 100 µM
* CCN(CC)CCCC(CO)Nc1ccnc2cc(Cl)ccc12 (stereo unspecified) | > 100 µM
* Cc1c([C@H](C(Cl)Cl)[C@H](O)[C@H]2C[C@H](C)C(=O)O2)ccc2c1C(=O)[C@H]1[C@H]2C[C@@H](Br)[C@@]23O[C@@H](CO[C@H]2O)CC13C (stereo partly specified) | > 50 µM
* COc1cc(/C=C/C(=O)Oc2ccc(NC(C)=O)cc2)ccc1C(=O)OCc1ccccc1 | > 100 µM
* COc1ccc(C23OCC(Cc4cc(OC)c(OC)cc42)C3COC(C)=O)cc1OC (stereo unspecified) | > 100 µM
* CCNCCCCNCCCCNCCCCNCCCCNCC | > 100 µM
* Oc1ccc(-c2nc3ccc4ccccc4c3c3c2CCCC3)c(O)c1 | > 100 µM

----------
tested on: SF-295 CNS; test: NCI tumour cell line growth inhibition, 48 h
endpoint-name: TGI

• Oc1ccc(-c2nc3ccc4ccccc4c3c3c2CCCC3)c(O)c1 = > 74.1 µM
• Cc1cccc(C(C)(C)C)c1NC(=O)CCl = > 100 µM
• CN(C)c1nc(=Nc2ccc3c(c2)OCO3)ss1 = > 100 µM
• Cc1nc2c(n1CC(C)C)C(=O)c1ccccc1C2=O = > 100 µM
• COc1cc(/C=C2/SC(c3ccccc3)N(c3cccc(NC(C)=O)c3)C2=O)cc(OC)c1OC (centres undefined) = > 100 µM
• CCOC(=O)Cc1csc(NC(=O)COC(=O)c2ccc(N)cc2)n1 = > 100 µM
• O=c1c2c([nH]c3ccccc13)CCCC2 = > 100 µM
• COc1cccc2c1C(=O)c1c(O)c3c(c(O)c1C2=O)CC(O)(/C(C)=N/NC(=O)CCCCC(=O)N/N=C(\C)C1(O)Cc2c(O)c4c(c(O)c2C(OC2CC(N)C(O)C(C)O2)C1)C(=O)c1c(OC)cccc1C4=O)CC3OC1CC(N)C(O)C(C)O1 (centres undefined) = 0.689 µM
• C=CCn1c(SCC(=O)Nc2ccc(C(=O)/C=C/c3cc(OC)c(OC)c(OC)c3)cc2)nnc1-c1ccc(Cl)cc1 = 48.8 µM
• C[n+]1c2ccccc2n2c3ccccc3c(NCCCN3CCOCC3)c(C#N)c21 = 14.8 µM
• COC(=O)C1C(O)C(C)C(=O)C(C)/C=C\C=C(C)C(=O)Nc2c(C)c(OC(C)=O)c3c(c2O)C(=O)C(C)=C2OCOC(=C23)C(C)=CC(C)(O)C(O)C(C)C1O (centres undefined) = > 100 µM
• COc1cc(C(=O)c2c(-c3ccccc3)oc3c(OC)cccc23)cc(OC)c1O = > 21.5 µM
• O=C1CSC(c2ccccc2O)N1c1ccc(-c2ccc(-n3c(-c4ccccc4)nc4ccccc4c3=O)cc2)cc1 (centres undefined) = 54.2 µM
• CCNCCCn1c2c(c3ccc(F)cc3c1=O)C(=O)c1cc(OC)cnc1-2 = 0.721 µM
• C(=N\c1nc2cc3sc(/N=C/c4cccs4)nc3cc2s1)/c1cccs1 = > 100 µM
• Cc1cc(-n2c(/C=C/c3ccc(Cl)cc3)nc3cc(Cl)ccc3c2=O)on1 = > 50 µM
• O=C(C=P(c1ccccc1)(c1ccccc1)c1ccccc1)c1ccc(-c2cccc([N+](=O)[O-])c2)cc1 = > 100 µM
• CCn1c2ccccc2c2cc(/C=C(/C#N)C(N)=S)ccc21 = 24.2 µM
• CCOC(=O)/C=C/C1=C(c2ccsc2)c2ccc(OC)cc2CC1 = 20.6 µM
• Nc1ccccc1C#C/C=C\C#Cc1cnccn1 = > 100 µM
• Cc1cccc2c1CC(C1OC(=O)c3ccccc31)C2=O (centres undefined) = > 100 µM
• COC1=CC(=O)c2c(ccc3ncnc(N)c23)C1=O = 6.76 µM
• COc1ccc(-c2nnc(COc3ccc(Cl)cc3Cl)o2)cc1OC = 70.6 µM
• Cn1c(=O)n(CCCO)c(=O)c2c1nc(Oc1cccc(OC(F)(F)F)c1)n2Cc1ccc(Cl)cc1 = 28.5 µM
• N#C/C(C(=O)Nc1ccccc1)=C(/N)N1CCCC1 = > 100 µM
• COc1ccc2c(c1)[C@@H]1c3cc(OC)c(OC)cc3CCN1CCC2 = > 100 µM
• Nc1nc2[nH]c(=O)cnc2c(=O)[nH]1 = > 125 µM
• CN1CCCC1c1cccnc1.O=C(O)c1ccccc1O.O=C([O-])c1ccccc1[OH2+].O=C([O-])c1ccccc1[OH2+].O=C([O-])c1ccccc1[OH2+].[Cu+2] (centres undefined) = > 100 µM
• CCCCc1c2c(nc3c1CCCC3=O)C(=O)CCC2 = > 100 µM
• CCOC(=O)NC(Nc1ccc(OC(F)(F)F)cc1)(C(F)(F)F)C(F)(F)F = > 100 µM
• C=CCSc1nc2c(N)ncnc2n1C1OC(CO)C(O)C1O (centres undefined) = > 100 µM
• CC1(F)C=CC(=O)C=C1 = > 100 µM
• O=C(CN=C(CN(c1ccccc1)c1ccccc1)Oc1c(Cl)cc(Cl)cc1Cl)N1c2ccccc2Sc2ccccc21 = > 100 µM
• CC(C)=CC(O)C(C(O)CCC1(C)OCCO1)S(=O)(=O)c1ccccc1 (centres undefined) = > 100 µM

----------
Below, each entry is listed alongside its reported TGI.
system: HCT-15 colon; assay: NCI tumour cell line growth inhibition, 48 h
endpoint-name: TGI (µM)

* O=[N+]([O-])c1ccc(C(Br)c2ccc([N+](=O)[O-])cc2)cc1 | 5.26
* O=C1C=CC(=O)c2c(O)c(N3CCN(c4ccccn4)CC3)c(Cl)c(O)c21 | 2.48
* Cc1ccc(NC(=O)/C(CC2N=c3c(ccc4c(O)c5ccccc5c(O)c34)=NC2O)=N/NC(C)(C)C)cc1 (configuration not stated) | 44.5

----------
test system: HOP-62 NSCLC; assay: NCI tumour cell line growth inhibition, 48 h
endpoint-name: TGI

* CN(C)c1nc(=Nc2ccc3c(c2)OCO3)ss1 | > 100 µM
* CC(CCOc1c2ccoc2cc2oc(=O)ccc12)C1=CC(=O)C(C)(C)O1 (configuration not stated) | > 100 µM
* CC1NS(=O)(=O)N(C)C1=O (configuration not stated) | > 100 µM
* COC(=O)[C@]12CC[C@H]3CN(C(=O)OCc4ccccc4)[C@H]([C@H]31)[C@H](c1ccco1)N2 | > 100 µM
* COc1cc(CN[C@H]2CCc3cc(OC)c(OC)c(OC)c3-c3ccc(SC)c(=O)cc32)cc(OC)c1 | > 100 µM
* O=C1c2scc(-c3ccccc3)c2-n2cccc21 | 38.1 µM
* Oc1ccc(Nc2nc3ccccc3c3occc23)cc1 | > 100 µM
* CCOC(=O)/C(=C\c1ccccc1)C(=O)CCN1CCOCC1 | 40.8 µM
* COC(=O)[C@](NC(=O)OCc1ccccc1)([C@@H](C)S(=O)c1ccc(C)cc1)C(F)(F)F (some centres not stated) | > 100 µM
* N#C/C(=C\c1cn(Cc2ccccc2)c2ccccc12)C(=O)Nc1ncc(Cc2ccccc2Cl)s1 | 10.4 µM
* COc1cccc(/C=C/c2ccc(S(N)(=O)=O)cc2)c1 | > 100 µM
* COc1cc(/C=C/C(=O)Oc2ccc(NC(C)=O)cc2)ccc1C(=O)OCc1ccccc1 | > 91.3 µM
* COc1ccc(/C=C/c2nsc(/C=C/c3ccc(OC)cc3)n2)cc1 | > 100 µM
* O=C(CN=C(CN(c1ccccc1)c1ccccc1)Oc1c(Cl)cc(Cl)cc1Cl)N1c2ccccc2Sc2ccccc21 | > 100 µM
* Cc1c([C@H](C(Cl)Cl)[C@H](O)[C@H]2C[C@H](C)C(=O)O2)ccc2c1C(=O)[C@H]1[C@H]2C[C@@H](Br)[C@@]23O[C@@H](CO[C@H]2O)CC13C (some centres not stated) | > 50 µM
* NCCc1c[nH]c2ccc(OC(=O)C(=O)O)cc12 | > 100 µM
* Nc1n[n+](=O)c2ccccc2n1O | > 100 µM

----------
tested on: OVCAR-8 ovarian; assay: NCI tumour cell line growth inhibition, 48 h
Below: a set of entries, each annotated with reported TGI.
endpoint-name: TGI (µM)

- NCCCCCCn1c(-c2ccc(Br)cc2)csc1=Nc1ccccc1: 26.2
- CCOC(=O)/C(=C\c1ccccc1)C(=O)CCN1CCOCC1: 18.4
- N#Cc1c(-c2ccc(Cl)cc2)csc1NC(=O)Nc1ccc(Cl)c(C(F)(F)F)c1: 15.7
- CC(C)=CCCC(C)[C@H]1CC(O)C2(C)C3=CCC4C(C)(C)[C@@H](O)CC[C@]4(C)C3=CC[C@]12C (some centres not stated): 3.79
- C[n+]1cn(C2=C([O-])c3ccccc3C(=O)/C2=N\S(=O)(=O)c2ccccc2)c2ccccc21: 77.4
- Cc1c(NC(=O)/C(=N/NC(=S)N=N)C2C(=O)CC(C)(C)CC2=O)c(O)c2ccccc2c1O: 17.6
- N#Cc1c2c(c(Cl)n3c1nc1ccccc13)CCCC2: 5.89

Sourced from PubChem BioAssay (NCI)
